Tested on: Kornkäfer (sitophilus granarius L)
PROCEDURE_DETAILS: whole plant or invertebrate
Type: in vivo
APPLIED_CONDITIONS: amine 1 mg/ml + Ripcord 0,01 mg/ml
ASSAY_ENDPOINT: Synergistischer Faktor bei Ripcord

1. CCCCCCCCCCCCN1CCCCC1    2,24
2. c1ccc(CN2CCCC2)cc1    2,45
3. C(CCCCCN1CCCCC1)CCCCN1CCCCC1    2,41
4. CCCCCCCCCCCCN1CCCCC1C (stereo not drawn)    1,49
5. c1ccc(OCCN2CCOCC2)cc1    2,45

What value of Synergistischer Faktor bei Ripcord has been reported for the following compound? CCCCCCCCCCCCCCCCN1CCCCC1CC (stereo not drawn)
2,37

Now give it for CCCCCC(CCCCC)N1CCCC1 too.
1,90

How about this compound: c1ccc(COCCN2CCOCC2)cc1
1,61

Please give the result for CCOC(=O)CCN1CCOCC1 too.
2,07

* * *

Each entry below lists one item and its recorded Wirksamkeit in % Substanz +Dimethoat value.
Test system: Drosophila melanogaster
PROCEDURE_DETAILS: whole plant or invertebrate
Assay type: in vivo
APPLIED_CONDITIONS: 1 ml 0,05%ige amine solution + 1 ml 0,005 %ige Dimethoat solution (Dimethoat : amine 1 : 10)

Here is how some compounds turned out for Wirksamkeit in % Substanz +Dimethoat.
1) C(=CC1CCCCC1)CN1CCCC1    22,5%
2) CCCCCCCCCCN1CCCC1    17,1%
3) CCCCCCCCCCCCCCN1CCOCC1    57,1%

Which value of Wirksamkeit in % Substanz +Dimethoat has been reported for C(=Cc1ccccc1)CN1CCCC1 in the records?
5,8%

And for CCOC(=O)CC(C(=O)OCC)N1CCCCC1 (centres unmarked) ?
38,8%

Proceed to c1cc2c(cc1CN1CCCCC1)OCO2
65,0%

Same question, CCCCCCCCCCN1CCCCCC1 this time
65,0%

Queued: CCCCOCCOCCOCCN1CCCC1
23,3%

Similarly, CCCCCCCCCCCCCN1CCCCC1 ?
54,6%

Same lookup for CCCCCCCCCCN1CCCCC1CC (centres unmarked) , please.
55,8%

Repeat for the following compound: C=CC(C)(CCC=C(C)C)N1CCOCC1 (centres unmarked)
30,8%

* * *

The following compounds are listed with their measured Wirksamkeit in % Substanz +Talcord values.
Test system: Kornkäfer (sitophilus granarius L)
PROCEDURE_DETAILS: whole plant or invertebrate
Format: in vivo
APPLIED_CONDITIONS: amine 1 mg/ml mixed 1 : 1 with Talcord 0,01 mg/ml; 3 h

1. CCCCCCCCCCCCCN1CCCCC1    17,2%
2. C(CCCCN1CCCC1)CCCN1CCCC1    64,0%
3. CCC1CCCCN1Cc1ccccc1 (stereo not drawn)    14,8%

What does the data say about its Wirksamkeit in % Substanz +Talcord? Entry: C1CCN(CCOCCOCCN2CCCC2)C1
69,2%

What do you have for C1CCC(N2CCCC2)CC1 ?
17,2%

* * *

Test system: Kornkäfer (sitophilus granarius L)
PROCEDURE_DETAILS: whole plant or invertebrate
Format: in vivo
APPLIED_CONDITIONS: Pyrethroid : Amin 1 : 10, amine 0,1 mg/ml; 180 min
Protocol: Test von tertiären, heterocyclischen Aminen allein und im Gemisch mit Pyrethroiden an Kornkäfern (sitophilus granarius L) In Petrischalen mit 15 cm Durchmesser mit talcumbepuderten Seitenwänden, um das Entfliehen der Kornkäfer zu verhindern, wurden jeweils 2 ml der Acetonlösungen einpipettiert und durch vorsichtiges Schwenken der Schalen gleichmäßig auf dem Boden verteilt. Nach dem Abdampfen des Acetons und dem Antrocknen der Beläge wurden in jede Schale 25 Kornkäfer eingezählt. […]
ASSAY_ENDPOINT: % Wirkung Substanz +Talcord

1. Clc1ccc(CN2CCCC2)cc1    73,2%
2. CCCCCCCCCCN1CCCCC1    65,2%
3. CCOC(=O)C(c1ccccc1)N1CCCCC1 (centres unmarked)    50,8%

Item CCCCCCCCCCCN1CCCCC1 has what recorded % Wirkung Substanz +Talcord?
60,0%

Another molecule to check: c1ccc(CN2CCCCC2)cc1
73,2%

* * *

Listing of recorded mortality at 1000 µg/mL by entry.
System: Kornkäfer (sitophilus granarius L)
PROCEDURE_DETAILS: whole plant or invertebrate
Type: in vivo
APPLIED_CONDITIONS: Sitophilus granarius; amine 1 mg/ml in Aceton mixed 1 : 1 with Aceton, 2 ml per dish; 25 weevils, dead counted after 3 h; read-out: Wirksamkeit in % Substanz allein
Method: Test von tertiären, heterocyclischen Aminen allein und im Gemisch mit Pyrethroiden an Kornkäfern (sitophilus granarius L) In Petrischalen mit 15 cm Durchmesser mit talcumbepuderten Seitenwänden, um das Entfliehen der Kornkäfer zu verhindern, wurden jeweils 2 ml der Acetonlösungen einpipettiert und durch vorsichtiges Schwenken der Schalen gleichmäßig auf dem Boden verteilt. Nach dem Abdampfen des Acetons und dem Antrocknen der Beläge wurden in jede Schale 25 Kornkäfer eingezählt. […]
Unit % implied. Number only.

Example compounds with recorded mortality at 1000 µg/mL:
1) CCCCCCCCCCCCN1CCCCC1    24
2) C(=Cc1ccccc1)CN1CCOCC1    0
3) CCCCCCCCCCCCCN1CCCC1    22.8
4) CCCCCCCCCCCCCCN1CCOCC1    0

Consider the compound C(=Cc1ccccc1)CN1CCCCC1 and give its measured mortality at 1000 µg/mL.
0

Continue with C1CCC(N2CCCC2)CC1
0

Query C1CCCC(N2CCOCC2)CC1 next
0

Same for CCCCCCCCCC(C)N1CCCC1 (centres unmarked)
56

Here is the next compound: CCCCCCCCCCCCCCN1CCCC1
0

Can you check CCCCCCCCN1CCCC1 next?
0

Then CCCCCCCCCCCCN1CCCC1 ?
89.3

* * *

Below, each entry is listed alongside its reported Wirksamkeit in % Substanz +Ripcord.
System: Kornkäfer (sitophilus granarius L)
PROCEDURE_DETAILS: whole plant or invertebrate
Type: in vivo
APPLIED_CONDITIONS: amine 1 mg/ml mixed 1 : 1 with Ripcord 0,01 mg/ml; 3 h

1. CCOC(=O)C(c1ccccc1)N1CCCC1 (stereo not shown)    92,0%
2. c1ccc2cc(CN3CCCCC3)ccc2c1 [2-N-Piperidino-methyl-naphthalin]    96,0%
3. c1ccc(OCCN2CCOCC2)cc1 [N-(2-Phenoxi-ethyl-(1))-morpholin]    77,2%
4. CCCCCCCCN1CCCCC1CC (stereo not shown) [N-1-Octyl-2-ethyl-piperidin]    74,8%
5. c1ccc(CN2CCCC2)cc1 [N-Benzyl-pyrrolidin]    77,2%

// query Wirksamkeit in % Substanz +Ripcord value for entry C1CCCC(N2CCOCC2)CC1 [N-Cycloheptyl-morpholin]
56,0%

How about this molecule: CCCCCCCCCCCCCN1CCCCC1 [N-1-Tridecyl-piperidin]
96,0%

* * *

PROCEDURE_DETAILS: Acute oral toxicity, single oral application, 14 day LD50
Parameters: species or system SPF-Wistar-Ratten
APPLIED_CONDITIONS: rat, in vivo, weibliche Ratten, read-out: 14 Tage LD50
Each entry below lists one item and its recorded LD50 at 336 h value.
Give just the numeric value; mg/kg need not be written.

1. CCOC(=O)C(c1ccccc1)N1CCCCC1 (centres unmarked)    8170

Need LD50 at 336 h of CCCCCCCCCCCN1CCCCC1 [N-1-Undecyl-piperidin] , thanks.
493

* * *

Item-by-item account of Synergistischer Faktor bei Talcord
Tested on: Kornkäfer (sitophilus granarius L)
PROCEDURE_DETAILS: whole plant or invertebrate
Assay type: in vivo
APPLIED_CONDITIONS: in vivo

1) c1ccc(C(N2CCCCC2)N2CCCCC2)cc1    1,94

Could you share which Synergistischer Faktor bei Talcord value was measured for CCCCCC(C=O)CN1CCCCC1 (stereo not drawn) ?
6,19

Okay, and CCCCOCCOCCN1CCCCCC1 ?
3,30

Here is the next compound: CCCCOC(CN1CCOCC1)OCCCC
10,31

CCCCOC(CN1CCCCC1)OCCCC ?
3,71

Please give the result for CCCCOCCOCCN1CCOCC1 too.
8,12

* * *

System: Drosophila melanogaster
PROCEDURE_DETAILS: whole plant or invertebrate
Format: in vivo
APPLIED_CONDITIONS: 1 ml 0,05%ige amine solution + 1 ml Aceton per dish; 20 flies, dead counted every 5 min, 12 times; mean values
Measured Wirksamkeit in % Substanz allein of individual entries

In the examples that follow, each entry is paired with its recorded Wirksamkeit in % Substanz allein.
1) C(CCCCN1CCOCC1)CCCN1CCOCC1    1,3%
2) C=CC(C)(CCC=C(C)C)N1CCOCC1 (stereo not drawn)    11,7%

Give its Wirksamkeit in % Substanz allein value. Item: CCOC(=O)CC(C(=O)OCC)N1CCCCC1 (stereo not drawn)
0%

* * *

Test system: Drosophila melanogaster
PROCEDURE_DETAILS: whole plant or invertebrate
Format: in vivo
APPLIED_CONDITIONS: 1 ml 0,05%ige amine solution + 1 ml 0,005 %ige Dimethoat solution (Dimethoat : amine 1 : 10)
Below is a list of entries, each paired with its recorded Wirksamkeit in % Substanz +Dimethoat value.

Some compounds with known Wirksamkeit in % Substanz +Dimethoat results, for comparison:
1) c1cc2c(cc1CN1CCCC1)OCO2    60,0%
2) CCCCCCCCCCN1CCCCC1C (stereo not drawn)    66,7%
3) CCOC(=O)C(c1ccccc1)N1CCCCC1 (stereo not drawn)    22,2%
4) C(CCCCN1CCOCC1)CCCN1CCOCC1    23,8%
5) c1ccc(OCCCN2CCCCC2)cc1    8,8%
6) C=CC(C)(CCC=C(C)C)N1CC1 (stereo not drawn)    21,7%
7) CCCCCC(CCCCC)N1CCCC1    54,2%
8) C(=Cc1ccccc1)CN1CCCCC1    77,1%

Continue with the next compound.
What measured Wirksamkeit in % Substanz +Dimethoat goes with CCCCCCCCCN1CCCCC1CC (stereo not drawn) ?
24,6%

Provenance of the data: patent EP0029617A1
